- TEST SUMMARY: protein stability index of a GFP-peptide fusion (GPS, HEK-293T) (PSI 1-6); higher = more stable;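 further: 24-mer peptide tiles fused after GFP, lentivirally expressed, FACS-sorted into six equal bins by GFP/DsRed ratio, decoded by Illumina sequencing, PSI is the read-weighted mean bin number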
- TEST CONDITIONS: treatment: DMSO; c terminus: a fixed tail appended
protein stability index of 3 or higher: 1.0. Under 3: 0.0.

Example cases with answers are listed next.
# ITEM SEQUENCE, CLASS
measured = [
    ("PIRSISLRSCYFSDPDCSMRPTLI [FBXO39]", 0.0),
    ("PGFYATYESTLFEDQVPALEAPED [MIA2]", 1.0),
    ("ATGMFLQYTVPGTEGVTQLKLTVV [ZFYVE21]", 1.0),
    ("MSEADGLRQRRPLRPQVVTDDDGQ [APMAP]", 1.0),
]

Is protein stability index at least 3? Consider KDLVMYSKCQRLFRSPSMPCSVIR [CDC25B]
0.0

Is protein stability index at least 3? Consider GGTPHCEPCQLPSESPGSLSEVLA [DNAAF3]
1.0

Is protein stability index at least 3? Consider RAFVSIQEEMAEDPLTYKSRLMVV [RHOBTB2]
0.0

Is protein stability index at least 3? Consider QALRQMNEGAIDCVNYEGQSAYDV [DLC1]
1.0

Is protein stability index at least 3? Consider AAFCPQLDDSTVARELAITDSEHS [RETREG3]
1.0

Is protein stability index at least 3? Consider DKSDQSLPNASADSLGGSQEMVQR [TRAF3IP2]
1.0

Is protein stability index at least 3? Consider GSGVIGRSWAMLFASGGFQVKLYD [CRYL1]
0.0

Is protein stability index at least 3? Consider ILFVNSEFETLYNEHKSCEEKSVK [CLK3]
0.0

Is protein stability index at least 3? Consider AADDFRLKYENELALRQGVEADIN [KRT15]
1.0

Is protein stability index at least 3? Consider GKDHEILRRRIENGAKELWFFLQS [FUT8]
0.0

Is protein stability index at least 3? Consider GFALDILFAIANGFSPSYEFFAVT [SLC22A15]
1.0

Is protein stability index at least 3? Consider RTVQSLEIDLDSMRNLKASLENSL [KRT18]
1.0

Is protein stability index at least 3? Consider ETLSGDRVRLDSELRNVQDVVEDY [KRT71]
1.0

Is protein stability index at least 3? Consider SRVTASSGITIPKPPKPPDKPLMP [SMARCE1]
1.0

Is protein stability index at least 3? Consider LLLFLVFVIVLFFIYHFMQAEEGN [EMD]
0.0

Is protein stability index at least 3? Consider FQMVLEGGVCCTVTLNFNVPGEFK [GFOD1]
1.0

---

I'd appreciate it if you could supply protein stability index values for the items below.
- TEST SUMMARY: protein stability index of a GFP-peptide fusion (GPS, HEK-293T) (PSI 1-6); higher = more stable
- TEST CONDITIONS: treatment: DMSO; c terminus: a fixed tail appended
Give bare numbers.

Solved cases below.
# ITEM SEQUENCE, REPORTED
data = [
    ("SCPNGMSAENGLEKSGFSQHQNKS [DLC1]", 4.86),
    ("TLLAIGTKLPENQAIQMRLVDVAC [INTS4]", 2.12),
]

# next sequence below
Need protein stability index, item SPNLNVVDGRLTYPTCGIGYPVSS [SASS6]
3.06
